test system: Rattus norvegicus; test: Effect on change in total cholesterol (TC) in triton-induced hyperlipidemic rats after po administration of 10 mg/kg; type: functional
assay_endpoint: Change (%)
# value in %; strip the unit string

Recorded results for 2 molecules are shown here.
molecule	result_unit	Change
COc1cc2nc(-c3ccc(CP(=O)(OC(C)C)OC(C)C)cc3)n(C)c(=O)c2cc1OC	%	-4
CCOP(=O)(Cc1ccc(-c2nc3cc(OC)c(OC)cc3c(=O)n2C)cc1)OCC	%	-11

As a next step, examine the molecule that follows.
Form field: reported Change of CCOP(=O)(Cc1ccc(C(=O)Nc2ccc(Br)cc2C#N)cc1)OCC [IBROLIPIM] -27

----------
test: Partition coefficient (logP) (HPLC); format: physicochemical; conditions: octanol/water
logP by entry:

query_smiles	assay_endpoint	measurement
COc1cc2nc(-c3ccc(CP(=O)(OC(C)C)OC(C)C)cc3)nc(O)c2cc1OC	logP	4.38
COc1cc2nc(-c3ccc(CP(=O)(OC)OC)cc3)nc(OC)c2cc1OC	logP	3.75
CCOP(=O)(Cc1ccc(-c2nc3cc(OC)c(OC)cc3c(=O)n2Cc2ccccc2)cc1)OCC	logP	4.49
CCOP(=O)(Cc1ccc(-c2nc3ccc(Br)cc3c(=O)n2C)cc1)OCC	logP	4.09
CCOP(=O)(Cc1ccc(-c2nc(OC)c3c(F)cccc3n2)cc1)OCC	logP	5.13
CCOP(=O)(Cc1ccc(-c2nc(O)c3cc(OC)c(OC)cc3n2)cc1)OCC	logP	3.36

Form field: reported logP of COc1cc2nc(-c3ccc(CP(=O)(OC(C)C)OC(C)C)cc3)n(C)c(=O)c2cc1OC 4.2

Also CCOP(=O)(Cc1ccc(-c2nc(Oc3ccccc3)c3cc(Br)ccc3n2)cc1)OCC ? 7.67

Also CC(C)OP(=O)(Cc1ccc(-c2nc3ccc(Br)cc3c(=O)n2C)cc1)OC(C)C ? 4.88

Also CCOP(=O)(Cc1ccc(-c2nc(O)c3c(F)cccc3n2)cc1)OCC ? 3.13

Also CCOP(=O)(Cc1ccc(-c2nc3ccc(Br)cc3c(=O)n2Cc2ccccc2)cc1)OCC ? 5.17

Also COc1cc2nc(-c3ccc(CP(=O)(OC(C)C)OC(C)C)cc3)nc(OC)c2cc1OC ? 5.53

Also COc1cc2nc(-c3ccc(CP(=O)(OC)OC)cc3)n(C)c(=O)c2cc1OC ? 2.65

Also CCOP(=O)(Cc1ccc(-c2nc(OC)c3cc(Br)ccc3n2)cc1)OCC ? 6.37

Also CCOP(=O)(Cc1ccc(-c2nc(OC)c3cc(OC)c(OC)cc3n2)cc1)OCC ? 4.51

Also CCOP(=O)(Cc1ccc(-c2nc(OC)c3ccccc3n2)cc1)OCC ? 5.26

Also CCOc1nc(-c2ccc(CP(=O)(OCC)OCC)cc2)nc2ccc(Br)cc12 ? 7.01

Also COc1cc2nc(-c3ccc(CP(=O)(OC)OC)cc3)nc(O)c2cc1OC ? 2.6

Also CCOP(=O)(Cc1ccc(-c2nc3ccccc3c(=O)n2C)cc1)OCC ? 3.29

Also COc1nc(-c2ccc(CP(=O)(OC)OC)cc2)nc2ccc(Br)cc12 ? 5.61

----------
experiment: Partition coefficient (logP) (HPLC); format: physicochemical; conditions: octanol/water
assay_endpoint: logP

compound	measurement
CCOP(=O)(Cc1ccc(-c2nc(O)c3ccccc3n2)cc1)OCC	2.55
CCOP(=O)(Cc1ccc(C(=O)Nc2ccc(Br)cc2C#N)cc1)OCC [IBROLIPIM]	3.21
CCOP(=O)(Cc1ccc(-c2nc3cc(OC)c(OC)cc3c(=O)n2C)cc1)OCC	3.41

As a next step, examine the compound that follows.
Form field: reported logP of CCOP(=O)(Cc1ccc(-c2nc3cccc(F)c3c(=O)n2C)cc1)OCC 3.18

----------
test system: Rattus norvegicus; assay: Effect on change in plasma triglycerides (TG) in triton-induced hyperlipidemic rats after po administration of 10 mg/kg; type: functional
assay_endpoint: Change (%)
# value in %; strip the unit string

Recorded results for 2 compounds are shown here.
query_smiles	Change [%]
COc1cc2nc(-c3ccc(CP(=O)(OC(C)C)OC(C)C)cc3)n(C)c(=O)c2cc1OC	-8
CCOP(=O)(Cc1ccc(-c2nc3cc(OC)c(OC)cc3c(=O)n2C)cc1)OCC	-21

Form field: reported Change of CCOP(=O)(Cc1ccc(C(=O)Nc2ccc(Br)cc2C#N)cc1)OCC -54

Entry source: ChEMBL document CHEMBL1129741
